# Test Protocol: AUC in monkey at 1 mg/kg, po
# Format: ADME, organism-based, Macaca mulatta
# Parameters: dose 1 mg/kg, route oral
# Test Settings: rhesus monkey, plasma
Measurement Name: AUC (ng·h/mL)
Note: unit ng·h/mL is implicit; provide only the numeric part.

IN: Which value of AUC has been reported for Cc1cccc(C(=O)NCN2CCC(c3cccc[n+]3[O-])CC2)c1 in the records?
OUT: 2280

----------
# Test Protocol: AUC in rat at 1 mg/kg, po
# Type: ADME, organism-based
# Parameters: dose 1 mg/kg, route oral
# Test Settings: plasma
Measurement Name: AUC
A bare number is not enough; add the unit after it.

IN: Which value of AUC has been reported for Cc1cccc(C(=O)NCN2CCC(c3cccc[n+]3[O-])CC2)c1 in the records?
OUT: 922 ng·h/mL

----------
# Test Protocol: Half life in Sprague-Dawley rat at 1 mg/kg, po
# Assay type: ADME, organism-based
# Design: dose 1 mg/kg, route oral
# Test Settings: in vivo
Measurement Name: half-life (min)
Note: unit min is implicit; provide only the numeric part.

IN: Which value of half-life has been reported for Cc1cccc(NC(=O)CN2CCC(c3cccc[n+]3[O-])CC2)c1 in the records?
OUT: 18

----------
# Measured Target: D(2) dopamine receptor (Rattus norvegicus) (UniProt P61169)
# Sequence (P61169 whole entry): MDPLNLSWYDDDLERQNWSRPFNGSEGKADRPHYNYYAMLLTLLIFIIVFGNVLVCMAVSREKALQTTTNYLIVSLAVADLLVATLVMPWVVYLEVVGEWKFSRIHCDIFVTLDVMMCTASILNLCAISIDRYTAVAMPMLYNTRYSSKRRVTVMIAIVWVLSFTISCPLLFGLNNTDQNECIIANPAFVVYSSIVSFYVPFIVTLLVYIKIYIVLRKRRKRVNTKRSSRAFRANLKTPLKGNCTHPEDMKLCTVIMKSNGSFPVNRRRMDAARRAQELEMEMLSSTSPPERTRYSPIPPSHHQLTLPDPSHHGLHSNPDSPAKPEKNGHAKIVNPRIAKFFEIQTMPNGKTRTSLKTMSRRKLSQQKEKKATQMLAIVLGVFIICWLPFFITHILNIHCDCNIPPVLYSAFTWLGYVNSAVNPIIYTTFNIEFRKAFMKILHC
# Test Protocol: Agonist activity at rat D2 receptor in HEK293 cells coexpressing G-alpha-qo5 by FLIPR relative to dopamine upto 10 uM
# Assay type: functional, cell-based
Calls of active or inactive are those of the source. The rule behind the calls is not given here.

Compound Smiles	Activity
Cc1cc(F)ccc1NC(=O)CN1CCC(c2cccc[n+]2[O-])CC1	inactive
Cc1cccc(NC(=O)CN2CCC(c3cccc[n+]3[O-])CC2)c1	inactive
Oc1ccc(N2CCN(Cc3nc4ccccc4[nH]3)CC2)nc1	inactive
Cc1cccc(C(=O)NCN2CCC(c3cccc[n+]3[O-])CC2)c1	inactive

----------
The following compounds are shown together with reported inhibition at 3 ug/mL values.
# Measured Target: UniProt Q12809
# Sequence (Q12809 whole entry): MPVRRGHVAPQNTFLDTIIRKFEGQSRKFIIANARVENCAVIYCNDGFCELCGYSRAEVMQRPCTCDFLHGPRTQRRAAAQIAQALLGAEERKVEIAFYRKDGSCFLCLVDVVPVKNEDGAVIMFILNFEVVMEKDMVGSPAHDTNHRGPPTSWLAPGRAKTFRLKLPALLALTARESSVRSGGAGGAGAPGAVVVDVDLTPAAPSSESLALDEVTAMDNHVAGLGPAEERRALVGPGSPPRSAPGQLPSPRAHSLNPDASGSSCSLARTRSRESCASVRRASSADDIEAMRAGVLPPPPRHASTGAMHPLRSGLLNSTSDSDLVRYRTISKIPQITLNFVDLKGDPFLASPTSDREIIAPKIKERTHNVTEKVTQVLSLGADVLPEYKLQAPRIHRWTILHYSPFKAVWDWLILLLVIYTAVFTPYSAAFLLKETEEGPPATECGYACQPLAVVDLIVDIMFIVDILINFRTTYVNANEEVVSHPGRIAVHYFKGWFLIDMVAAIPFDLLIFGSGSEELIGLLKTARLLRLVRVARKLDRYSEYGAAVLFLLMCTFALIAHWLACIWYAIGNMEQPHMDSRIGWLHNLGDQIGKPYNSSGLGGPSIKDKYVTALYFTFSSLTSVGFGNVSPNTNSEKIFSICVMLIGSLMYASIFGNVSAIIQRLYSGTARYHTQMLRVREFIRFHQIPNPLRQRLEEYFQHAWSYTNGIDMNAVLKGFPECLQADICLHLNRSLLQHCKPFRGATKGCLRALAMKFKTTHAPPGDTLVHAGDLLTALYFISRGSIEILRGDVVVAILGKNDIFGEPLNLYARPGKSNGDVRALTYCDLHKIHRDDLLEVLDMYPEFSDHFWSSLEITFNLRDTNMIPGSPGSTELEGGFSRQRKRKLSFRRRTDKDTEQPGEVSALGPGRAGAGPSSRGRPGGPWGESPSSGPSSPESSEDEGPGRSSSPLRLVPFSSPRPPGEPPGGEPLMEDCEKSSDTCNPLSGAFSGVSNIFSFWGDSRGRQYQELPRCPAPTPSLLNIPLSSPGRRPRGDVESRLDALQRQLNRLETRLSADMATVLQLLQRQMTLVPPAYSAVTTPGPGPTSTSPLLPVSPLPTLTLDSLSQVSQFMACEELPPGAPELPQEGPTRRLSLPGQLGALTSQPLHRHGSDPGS
# Test Protocol: Blockade of current at hERG expressed in HEK293 cells at 3 ug/mL
# Type: cell-based
# Test Settings: HEK293 cells that express hERG
Note: unit % is implicit; provide only the numeric part.

Compound Smiles	Scale Unit	Reported Result
Cc1cccc(C(=O)NCN2CCC(c3cccc[n+]3[O-])CC2)c1	%	14.5

IN: Test system UniProt Q12809; read-out inhibition at 3 ug/mL; what value for Cc1cccc(NC(=O)CN2CCC(c3cccc[n+]3[O-])CC2)c1 ?
OUT: 44.8

----------
# Test Protocol: Half life in rat at 1 mg/kg, po
# Type: ADME, organism-based
# Set-up: dose 1 mg/kg, route oral
# Test Settings: in vivo
Measurement Name: half-life (h)
Note: unit h is implicit; provide only the numeric part.

IN: Which value of half-life has been reported for Cc1cccc(C(=O)NCN2CCC(c3cccc[n+]3[O-])CC2)c1 in the records?
OUT: 1.8

----------
# Measured Target: D(4) dopamine receptor (Rattus norvegicus) (UniProt P30729)
# Sequence (P30729 whole entry): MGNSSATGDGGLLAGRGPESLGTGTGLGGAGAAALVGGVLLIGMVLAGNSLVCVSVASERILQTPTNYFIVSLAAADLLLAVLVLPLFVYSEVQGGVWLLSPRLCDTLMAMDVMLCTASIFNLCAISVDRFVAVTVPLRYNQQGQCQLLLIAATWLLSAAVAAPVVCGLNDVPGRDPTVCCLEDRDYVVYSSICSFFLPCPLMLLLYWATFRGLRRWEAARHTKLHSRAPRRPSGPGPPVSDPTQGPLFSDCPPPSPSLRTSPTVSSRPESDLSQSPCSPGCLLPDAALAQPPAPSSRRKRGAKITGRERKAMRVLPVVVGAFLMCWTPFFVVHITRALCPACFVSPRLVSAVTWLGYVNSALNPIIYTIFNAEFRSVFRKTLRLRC
# Test Protocol: Agonist activity at rat D4 receptor in HEK293 cells co-expressing Galphaqo5 by FLIPR relative to dopamine
# Assay type: functional, cell-based
The following molecules are shown together with reported Efficacy values.
Note: unit % is implicit; provide only the numeric part.

Compound Smiles	Measurement Name	Scale Unit	Reported Result
Cc1cc(F)ccc1NC(=O)CN1CCC(c2cccc[n+]2[O-])CC1	Efficacy	%	76
Cc1cccc(C(=O)NCN2CCC(c3cccc[n+]3[O-])CC2)c1	Efficacy	%	78
Cc1cccc(NC(=O)CN2CCC(c3cccc[n+]3[O-])CC2)c1	Efficacy	%	80

IN: Which value of Efficacy has been reported for Oc1ccc(N2CCN(Cc3nc4ccccc4[nH]3)CC2)nc1 in the records?
OUT: 66
